Tested on: SK-OV-3 ovarian
Experiment: NCI tumour cell line growth inhibition, 48 h; in the data active = GI50 below about 0.43 µM; inactive = the rest
Choose the fitting class; nothing outside active, inactive is accepted.

Some solved cases for reference:
What outcome does the record of this test show for CC[CH2][Pb]([CH2]CC)([CH2]CC)[O]C(=O)C(F)(F)F ?
active

What outcome does the record of this test show for C[C@]12CC[C@H](O)CC1=CC[C@@H]1[C@@H]2CC[C@]2(C)C(c3cccnc3)=CC[C@@H]12 ?
inactive

Could you now look at the following molecule, please?
What outcome does the record of this test show for Cn1cc(-c2cnc3ccc(NC(=O)Nc4ccc(F)c(Br)c4)cc3n2)cn1 ?
inactive

* * *

Test system: LOX IMVI melanoma
Test: NCI tumour cell line growth inhibition, 48 h
# TGI annotations

Recorded TGI, per entry:
// OCCCCCNc1c2ccccc2nc2ccccc12 : TGI value = 4.7 µM

// O=C1C=CC(=Nc2ccc3c(c2)C(Br)c2ccccc2-3)O1 (stereo not given) : TGI value = > 100 µM

// C=C(C(=O)C(=O)Oc1ccc(Cl)cc1)C(=O)c1ccc(C)cc1 : TGI value = 16.5 µM

// Cc1ccc(S(=O)(=O)C(CC(=O)N2CCCC2)C(=O)c2ccccc2)cc1 (stereo not given) : TGI value = > 100 µM

// NCC(=O)NS(=O)(=O)OC[C@H]1O[C@@H](n2cnc3c(N)ncnc32)[C@H](O)[C@@H]1O : TGI value = 3.52 µM

Moving on to another compound below.
// O=C(O)c1cc2c(cc1CC(Cc1ccc3c(c1)CCC3)C(=O)O)CCC2 (stereo not given) : TGI value = > 100 µM

* * *

Test system: CCRF-CEM leukemia
Assay: NCI tumour cell line growth inhibition, 48 h; in the data active = GI50 below about 0.43 µM; inactive = the rest
Choose the fitting class; nothing outside 1 (active), 0 (inactive) is accepted.

Some solved cases for reference:
What outcome does the record of this test show for Cc1ccc(-c2c3c([nH]c(=O)c2C#N)-c2cc(F)ccc2OC3)cc1 ?
0

What outcome does the record of this test show for CCCCC/C(C=C(C#N)C#N)=C/c1ccccc1 ?
0

What outcome does the record of this test show for COc1cc(/C=C/c2cc(/C=C/c3ccc(O)c(OC)c3)n(-c3ccccc3)n2)ccc1O ?
1

What outcome does the record of this test show for O=c1oc2ccc(F)cc2c(=O)n1-c1ccc(F)cc1F ?
0

Could you now look at the following molecule, please?
What outcome does the record of this test show for CCOc1cccc(/C=N/NC(=O)c2ccccc2Nc2ccnc(C(F)(F)F)c2)c1O ?
1

* * *

# TGI annotations
Tested on: HS 578T breast
Assay: NCI tumour cell line growth inhibition, 48 h

// CN1C(=O)N(c2ccccc2)C2(CCN(CC3COc4ccccc4O3)CC2)C1=O (stereo not given) : TGI value = > 100 µM

// Cc1cc(N(CCOS(C)(=O)=O)CCOS(C)(=O)=O)ccc1C=Nc1ccc(-c2nc(Cc3ccccc3)sc2C)cc1 : TGI value = 34.6 µM

// COc1cccc2c(N)c3cccc(C(=O)NCCN(C)C)c3nc12 : TGI value = 0.571 µM

// CN(C)/N=N/c1nc2c(c(=O)n(C)c(=O)n2C)n1C : TGI value = > 100 µM

// Cc1nc(-c2ccc([N+](=O)[O-])cc2)cn2c1nc1ccccc12 : TGI value = > 100 µM

// CCCCCCCCCCCCCCCCCCNc1ccn(C2OC(COP(=O)(O)OCC3OC(n4ccc(NC(=O)CCCCCCCCCCCCCCCCC)nc4=O)C(OC(C)=O)C3OC(C)=O)C(OC(C)=O)C2OC(C)=O)c(=O)n1 (stereo not given) : TGI value = > 100 µM

Next:
// COc1ccccc1Nc1nc(N)nc(N)c1N=O : TGI value = > 100 µM

// Cc1cc(I)cc(CNCCCN2CCSCC2)c1O : TGI value = 26.6 µM

// CCCCC/C(C=C(C#N)C#N)=C/c1ccccc1 : TGI value = 4.76 µM

// O=C(O)Cn1ccc(=O)c2ccc([N+](=O)[O-])cc21 : TGI value = > 100 µM

* * *

Test system: SR leukemia
Experiment: NCI tumour cell line growth inhibition, 48 h
ATTRIBUTE MEASURED: GI50

Recorded GI50, per entry:
The compound COc1cccc(/C=N/NC(=O)c2ccccc2Nc2ccnc(C(F)(F)F)c2)c1O , when measured on SR leukemia, yielded GI50 of 47.7 nM

The compound COC(=O)c1cc2c3ccccc3[nH]c2c2ncccc12 , when measured on SR leukemia, yielded GI50 of 66400 nM

The compound CN1CCN(Cc2ccc(NC(=O)c3cncc(C#Cc4cnc(N)c5ccc(C#N)cc45)c3)cc2C(F)(F)F)CC1 , when measured on SR leukemia, yielded GI50 of 46.4 nM

Next:
The compound O=C1c2cccc(NCCN=Cc3cc(O)ccc3O)c2C(=O)c2c(NCCN=Cc3cc(O)ccc3O)cccc21 , when measured on SR leukemia, yielded GI50 of 601 nM

The compound O=C(CI)NC1Oc2ccccc2-c2oc(=O)c(-c3ccccc3)cc21 (stereo not given) , when measured on SR leukemia, yielded GI50 of 357 nM

* * *

Tested on: COLO 205 colon
Assay: NCI tumour cell line growth inhibition, 48 h; in the data active = GI50 below about 0.43 µM; inactive = the rest
Choose the fitting class; nothing outside t (active), f (inactive) is accepted.

What outcome does the record of this test show for O=C(NCCOCCOCCNc1cccc2c1C(=O)N(C1CCCNC1=O)C2=O)c1cc2c(o1)C(=O)c1ccccc1C2=O (stereo not drawn) ?
f

Could you now look at the following molecule, please?
What outcome does the record of this test show for Cc1cc(I)cc(CNCCCN2CCSCC2)c1O ?
f

* * *

System: HT29 colon
Assay: NCI tumour cell line growth inhibition, 48 h
ATTRIBUTE MEASURED: TGI

Recorded TGI, per entry:
// O=C(O)CCCCC(CCSCc1ccccc1)SCc1ccccc1 (centres undefined) : TGI value = > 100 µM

// CC1=C(O)C(=O)[C@@H]2O[C@@H]2C1=O : TGI value = 36.6 µM

// O=C1CNCCCN2CCN(CCCNCC(=O)Nc3ccc(cc3)S(=O)(=O)c3ccc(cc3)NC(=O)CNCCCN3CCN(CCCNCC(=O)Nc4ccc(cc4)S(=O)(=O)c4ccc(cc4)N1)CC3)CC2 : TGI value = > 67.5 µM

// CC1(O)CC(C(F)(F)F)(C(F)(F)F)OC1=O (centres undefined) : TGI value = > 10 µM

// O=C(CCCCCCCCC(=O)NN1C(=O)/C(=C\c2ccc(O)c(O)c2)SC1c1ccc(Cl)cc1)NN1C(=O)/C(=C\c2ccc(O)c(O)c2)SC1c1ccc(Cl)cc1 (centres undefined) : TGI value = > 100 µM

// O=C1NNC=Nc2ccc(cc2)S(=O)(=O)c2ccc(cc2)N=CNNC1=O : TGI value = > 100 µM

// Cc1nnc2n1N=C(c1cc(F)c(Cl)cc1Cl)/C(=C/c1ccc(Cl)cc1)S2 : TGI value = 34.5 µM

// O=c1nc(N2CCN(c3ccccc3)CC2)ccn1C1OC(CO)C(O)C1O (centres undefined) : TGI value = > 100 µM

Moving on to another compound below.
// N#CSCC1CC(O)(c2ccccc2)C(c2ccccc2)C(c2ccc(Cl)cc2)O1 (centres undefined) : TGI value = 2.45 µM

* * *

# TGI annotations
System: HOP-92 NSCLC
Test: NCI tumour cell line growth inhibition, 48 h
Write the answer as a number in µM, unit excluded.

Recorded TGI, per entry:
// COc1ccc2[nH]c(O)c(/C=c3/cc4c(c(-c5cc(OC)c(OC)c(OC)c5)n3)=Nc3ccccc3-4)c2c1 : TGI value = 99.2

// CSc1ccc(C2=NN(C(C)=O)C(c3cc(C)cs3)C2)cc1 (stereo not given) : TGI value = 90.1

// O=C1c2c(c3c4ccccc4n(CCCCCCBr)c3c3[nH]c4ccccc4c23)C(=O)N1O : TGI value = 6.7

// CCOC(=O)C1Cc2[nH]c3ccccc3c2C(C)C1C (stereo not given) : TGI value = 32

// CC(=O)OCC(C)C1=C(O)C(=O)C2(C)C/C=C(/C)CC/C=C(\C)CCC(O)C(C)CCC12 (stereo not given) : TGI value = 33.7

// Cn1cc(-c2cnc3ccc(NC(=O)Nc4ccc(F)c(Br)c4)cc3n2)cn1 : TGI value = 4.41

// NCC1CCN(c2nc3ccccc3c3c2CCCC3)CC1 : TGI value = 24.1

Next:
// O=c1oc2ccc(F)cc2c(=O)n1-c1ccc(F)cc1F : TGI value = 4.68

* * *

Tested on: K-562 leukemia
Test: NCI tumour cell line growth inhibition, 48 h
# TGI annotations

Recorded TGI, per entry:
// NCC1CCN(c2nc3ccccc3c3c2CCCC3)CC1 : TGI value = 8.07 µM

// Cc1nc2c(sc(=S)n2-c2ccccc2)c2nc3ncccc3n12 : TGI value = > 100 µM

// O=C1OCc2c1cc1ccc(O)c(OC3OC(CO)C(O)C(O)C3O)c1c2-c1ccc2c(c1)OCO2 (centres undefined) : TGI value = > 100 µM

// COc1ccc(-c2cc(-c3ccco3)c(C#N)c(=S)n2C2OC(COC(C)=O)C(OC(C)=O)C(OC(C)=O)C2OC(C)=O)cc1 (centres undefined) : TGI value = > 100 µM

// CC1(C)CC(/C=C2/OC(=O)c3ccccc32)=C(C#N)C(=O)O1 : TGI value = > 100 µM

Next:
// O=C(O)CSc1nnc(COc2ccc(Cl)cc2)n1-c1ccccc1 : TGI value = > 100 µM

// COc1ccc2c(c1)c(-c1nc(-c3cn(C)c4ncccc34)cs1)cn2CCCN1CCCCC1 : TGI value = 3.4 µM

// CC[C@]1(Cc2ccc(OC)c(OC)c2)CN(S(=O)(=O)c2ccc(C)cc2)C[C@@H]1OC(C)=O : TGI value = > 100 µM

// Cn1c(N2NC(=O)C(N=Nc3ccc(S(N)(=O)=O)cc3)C2=O)nc(-c2ccco2)c(C#N)c1=O (centres undefined) : TGI value = 31.2 µM
